Data credit: ChEMBL document CHEMBL5303573

conditions: parabacteroides distasonis, 12 h, 2 µM
Description: The drug is tested on Parabacteroides distasonis strain: ATCC8503 for biotransformation. The drug concentrations were measured before and after a 12-h incubation by liquid-chromatography-coupled mass spectrometry (LC–MS)
EXPERIMENTAL ENDPOINT: Bacterial Biotransformation

Recorded results for 10 compounds are shown here.
compound=CN1CC(=O)N2[C@H](c3ccc4c(c3)OCO4)c3[nH]c4ccccc4c3C[C@@H]2C1=O test_value="Compound NOT metabolized"
compound="CCN(CC)C(C)CN1c2ccccc2Sc2ccccc21 (stereo unspecified) [ETHOPROPAZINE]" test_value="Compound metabolized"
compound="c1ccc([C@H]2CN3CCSC3=N2)cc1 [LEVAMISOLE]" test_value="Compound metabolized"
compound="CCCCC1=NC2(CCCC2)C(=O)N1Cc1ccc(-c2ccccc2-c2nnn[nH]2)cc1 [IRBESARTAN]" test_value="Compound metabolized"
compound="CCOc1ccccc1OCCN[C@H](C)Cc1ccc(OC)c(S(N)(=O)=O)c1.Cl [TAMSULOSIN HYDROCHLORIDE]" test_value="Compound NOT metabolized"
compound="CCC(COC(=O)c1cc(OC)c(OC)c(OC)c1)(c1ccccc1)N(C)C.O=C(O)/C=C\\C(=O)O (stereo unspecified)" test_value="Compound metabolized"
compound="CC(CCc1ccccc1)NCC(O)c1ccc(O)c(C(N)=O)c1 (stereo unspecified) [LABETALOL]" test_value="Compound NOT metabolized"
compound="CN1C[C@H](C(=O)N[C@]2(C)O[C@@]3(O)[C@@H]4CCCN4C(=O)[C@H](Cc4ccccc4)N3C2=O)C=C2c3cccc4[nH]cc(c34)C[C@H]21.CN1C[C@H](C(=O)N[C@]2(C)O[C@@]3(O)[C@@H]4CCCN4C(=O)[C@H](Cc4ccccc4)N3C2=O)C=C2c3cccc4[nH]cc(c34)C[C@H]21.O=C(O)C(O)C(O)C(=O)O [ERGOTAMINE TARTRATE]" test_value="Compound metabolized"
compound="CCN(CC)CCCC(C)Nc1c2ccc(Cl)cc2nc2ccc(OC)cc12 (stereo unspecified) [QUINACRINE]" test_value="Compound NOT metabolized"
compound="CC1Cc2ccccc2N1NC(=O)c1ccc(Cl)c(S(N)(=O)=O)c1 (stereo unspecified) [INDAPAMIDE]" test_value="Compound NOT metabolized"

I would be grateful if you could share the reported Bacterial Biotransformation for CN1[C@@H]2CC[C@H]1C[C@@H](OC(=O)c1c[nH]c3ccccc13)C2 [TROPISETRON] .
Compound NOT metabolized

Dear colleague, I am looking for the recorded Bacterial Biotransformation of the following compound: C=CCN1CC[C@]23c4c5ccc(O)c4O[C@H]2C(=O)CC[C@@]3(O)[C@H]1C5 [NALOXONE]
Compound NOT metabolized

====

conditions: bifidobacterium adolescentis, 12 h, 2 µM
Description: The drug is tested on Bifidobacterium adolescentis strain: ATCC 15703 for biotransformation. The drug concentrations were measured before and after a 12-h incubation by liquid-chromatography-coupled mass spectrometry (LC–MS)
EXPERIMENTAL ENDPOINT: Bacterial Biotransformation

Guide cases for Bacterial Biotransformation, answers given:
compound=C[C@@H]1CC[C@H]2[C@@H](C)C(=O)O[C@@H]3O[C@@]4(C)CC[C@@H]1[C@]32OO4 test_value="Compound metabolized"
compound="CC(C)NCC(O)COc1ccc(CCOCC2CC2)cc1 (configuration not stated)" test_value="Compound NOT metabolized"
compound="CC(C)[C@H]1CC[C@H](C(=O)N[C@H](Cc2ccccc2)C(=O)O)CC1 [NATEGLINIDE]" test_value="Compound NOT metabolized"
compound="COc1c(C)c2c(c(O)c1C/C=C(\\C)CCC(=O)OCCN1CCOCC1)C(=O)OC2 [MYCOPHENOLATE MOFETIL]" test_value="Compound metabolized"
compound="CC(C)NCC(O)COc1ccc(COCCOC(C)C)cc1.CC(C)NCC(O)COc1ccc(COCCOC(C)C)cc1.O=C(O)/C=C/C(=O)O (configuration not stated) [BISOPROLOL FUMARATE]" test_value="Compound NOT metabolized"
compound="CC(C)(C)NC(=O)[C@H]1CC[C@H]2[C@@H]3CC[C@H]4NC(=O)C=C[C@]4(C)[C@H]3CC[C@]12C [FINASTERIDE]" test_value="Compound NOT metabolized"

Now take the following compound into account.
If you can, please state the reported Bacterial Biotransformation value of O=c1[nH]c2ccccc2n1CCCN1CCC(n2c(=O)[nH]c3cc(Cl)ccc32)CC1 .
Compound NOT metabolized

====

assay: The drug is tested on Clostridium asparagiforme strain: DSM15981 for biotransformation. The drug concentrations were measured before and after a 12-h incubation by liquid-chromatography-coupled mass spectrometry (LC–MS); assay type: ADME; set-up: dose 2 uM, timepoint 0 vs 12 hours; conditions: enterocloster asparagiformis, 2 µM
EXPERIMENTAL ENDPOINT: Bacterial Biotransformation

compound="CC(=O)CCCCn1c(=O)c2c(ncn2C)n(C)c1=O [PENTOXIFYLLINE]" test_value="Compound NOT metabolized"
compound="O=c1[nH]c2ccccc2n1C1CCN(CCCC(c2ccc(F)cc2)c2ccc(F)cc2)CC1 [PIMOZIDE]" test_value="Compound NOT metabolized"
compound="C#C[C@]1(OC(C)=O)CC[C@H]2[C@@H]3CCC4=C/C(=N/O)CC[C@@H]4[C@H]3CC[C@@]21CC [NORGESTIMATE]" test_value="Compound NOT metabolized"

====

experiment: The drug is tested on Bifidobacterium longum subsp. Infantis strain: CCUG52486 for biotransformation. The drug concentrations were measured before and after a 12-h incubation by liquid-chromatography-coupled mass spectrometry (LC–MS); settings: 2 µM
EXPERIMENTAL ENDPOINT: Bacterial Biotransformation

Recorded Bacterial Biotransformation, per entry:
molecule=c1ccc2[nH]c(-c3cscn3)nc2c1 test_value="Compound NOT metabolized"
molecule=C[C@@H]1CC[C@H]2[C@@H](C)C(=O)O[C@@H]3O[C@@]4(C)CC[C@@H]1[C@]32OO4 test_value="Compound metabolized"
molecule=O=C1[C@H](CC[C@H](O)c2ccc(F)cc2)[C@@H](c2ccc(O)cc2)N1c1ccc(F)cc1 test_value="Compound NOT metabolized"
molecule="CCOC(=O)C1=C(C)NC(C)=C(C(=O)OC)C1c1cccc([N+](=O)[O-])c1 (stereo not given)" test_value="Compound metabolized"

Now for a further molecule.
Entry under review: CC1Cc2ccccc2N1NC(=O)c1ccc(Cl)c(S(N)(=O)=O)c1 (stereo not given) [INDAPAMIDE] . Reported Bacterial Biotransformation?
Compound NOT metabolized

====

assay: The drug is tested on Ruminococcus torques strain: ATCC27756 for biotransformation. The drug concentrations were measured before and after a 12-h incubation by liquid-chromatography-coupled mass spectrometry (LC–MS); type: ADME; set-up: dose 2 uM, timepoint 0 vs 12 hours; conditions: 2 µM
EXPERIMENTAL ENDPOINT: Bacterial Biotransformation

Look over these answered cases.
compound="CC(C)[C@H]1CC[C@H](C(=O)N[C@H](Cc2ccccc2)C(=O)O)CC1 [NATEGLINIDE]" test_value="Compound NOT metabolized"
compound="CC(=O)Nc1ccc(OC(C)=O)cc1 [DIACETAMATE]" test_value="Compound metabolized"
compound="CC(C)NCC(O)c1ccc(NS(C)(=O)=O)cc1 (centres undefined)" test_value="Compound NOT metabolized"
compound="CNS(=O)(=O)Cc1ccc2[nH]cc(CCN(C)C)c2c1.O=C(O)CCC(=O)O [SUMATRIPTAN SUCCINATE]" test_value="Compound NOT metabolized"
compound=CNCC[C@H](Oc1cccc2ccccc12)c1cccs1 test_value="Compound NOT metabolized"

Sample CCN1CCCC1CNC(=O)c1cc(S(=O)(=O)CC)c(N)cc1OC (centres undefined) [AMISULPRIDE] — what was its Bacterial Biotransformation?
Compound NOT metabolized

Which Bacterial Biotransformation is listed for CN1C(=O)CC(C)(c2ccccc2)C1=O (centres undefined) [METHSUXIMIDE] ?
Compound NOT metabolized

# get_value(readout='Bacterial Biotransformation', item= C=CCN1CC[C@]23c4c5ccc(O)c4O[C@H]2C(=O)CC[C@@]3(O)[C@H]1C5 )
Compound metabolized

Sample Clc1ccc(Cn2c(CN3CCCC3)nc3ccccc32)cc1 — what was its Bacterial Biotransformation?
Compound NOT metabolized

====

assay: The drug is tested on Collinsella aerofaciens strain: ATCC25986 for biotransformation. The drug concentrations were measured before and after a 12-h incubation by liquid-chromatography-coupled mass spectrometry (LC–MS); conditions: 2 µM
EXPERIMENTAL ENDPOINT: Bacterial Biotransformation

// solved cases for Bacterial Biotransformation follow
molecule=Clc1cccc(Cl)c1N=C1NCCN1 experimental_endpoint="Bacterial Biotransformation" test_value="Compound NOT metabolized"
molecule=CC[C@H](C)C(=O)O[C@H]1C[C@@H](C)C=C2C=C[C@H](C)[C@H](CC[C@@H]3C[C@@H](O)CC(=O)O3)[C@H]21 experimental_endpoint="Bacterial Biotransformation" test_value="Compound NOT metabolized"
molecule="COc1cc(NC(C)CCCN)c2ncccc2c1.O=P(O)(O)O.O=P(O)(O)O (stereo not given) [PRIMAQUINE PHOSPHATE]" experimental_endpoint="Bacterial Biotransformation" test_value="Compound metabolized"
molecule="CC(C)(C)NC[C@H](O)COc1ccccc1C1CCCC1.CC(C)(C)NC[C@H](O)COc1ccccc1C1CCCC1.O=S(=O)(O)O [PENBUTOLOL SULFATE]" experimental_endpoint="Bacterial Biotransformation" test_value="Compound NOT metabolized"
molecule="CC(C)C[C@H]1C(=O)N2CCC[C@H]2[C@]2(O)O[C@](NC(=O)[C@@H]3C=C4c5cccc6[nH]c(Br)c(c56)C[C@H]4N(C)C3)(C(C)C)C(=O)N12.CS(=O)(=O)O [BROMOCRIPTINE MESYLATE]" experimental_endpoint="Bacterial Biotransformation" test_value="Compound metabolized"
molecule=O=C1CC2(CCCC2)CC(=O)N1CCCCN1CCN(c2ncccn2)CC1 experimental_endpoint="Bacterial Biotransformation" test_value="Compound NOT metabolized"

Need Bacterial Biotransformation, item CCN(CC)CCNC(=O)c1cc(Cl)c(N)cc1OC [METOCLOPRAMIDE]
Compound NOT metabolized

Need Bacterial Biotransformation of OC(c1cc(C(F)(F)F)nc2c(C(F)(F)F)cccc12)C1CCCCN1 (stereo not given) , thanks.
Compound NOT metabolized

Recorded Bacterial Biotransformation for COc1ccc(CCN(C)CCCC(C#N)(c2ccc(OC)c(OC)c2)C(C)C)cc1OC (stereo not given) , please?
Compound NOT metabolized

Can you look up the measured Bacterial Biotransformation of COC1=CC(=O)C[C@@H](C)[C@]12Oc1c(Cl)c(OC)cc(OC)c1C2=O for me?
Compound NOT metabolized

Give the measured Bacterial Biotransformation of CCN(CC)CC#CCOC(=O)C(O)(c1ccccc1)C1CCCCC1.Cl (stereo not given) [OXYBUTYNIN CHLORIDE] .
Compound NOT metabolized

Find the recorded Bacterial Biotransformation belonging to CCN(CC)CCNC(=O)c1ccc(NC(C)=O)cc1 [ACECAINIDE] and report it.
Compound NOT metabolized
